Reported pIC50 values are given for each entry in this list.
target: GST-Aurora A (Homo sapiens, UniProt O14965); construct: N-terminal GST fusion with full length Aurora A (1-403 amino acids); assay: Aurora A IC50, Caliper LC3000 mobility shift assay; settings: LC3000 method; 15 uM ATP (the KM value); read-out: Aurora Kinase A Activity (IC50)
Sequence (O14965 whole entry, the tested form may be a part): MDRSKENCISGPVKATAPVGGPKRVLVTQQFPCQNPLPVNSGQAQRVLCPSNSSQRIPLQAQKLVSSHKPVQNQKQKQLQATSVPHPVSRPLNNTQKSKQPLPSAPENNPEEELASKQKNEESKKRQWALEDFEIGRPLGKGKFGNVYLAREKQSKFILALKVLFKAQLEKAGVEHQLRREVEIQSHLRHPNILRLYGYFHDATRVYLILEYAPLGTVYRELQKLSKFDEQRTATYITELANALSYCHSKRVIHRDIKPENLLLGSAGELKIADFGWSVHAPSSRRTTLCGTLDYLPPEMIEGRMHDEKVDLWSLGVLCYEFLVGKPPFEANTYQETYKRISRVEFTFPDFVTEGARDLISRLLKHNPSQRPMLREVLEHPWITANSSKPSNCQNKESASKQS
pIC50: −log10 of the molar value.

{"compound": "O=C(Nc1ccc(Nc2ccnc3[nH]c(=O)c4c(C(=O)NCCN5CCOCC5)cccc4c23)cc1)c1ccc(F)cc1C(F)(F)F [Compound 442]", "testedTarget": "GST-Aurora A (Homo sapiens, UniProt O14965)", "recordedEndpoint": "pIC50", "val": "> 7.96"}
{"compound": "O=C(CN1CCC(Nc2ccnc3[nH]c(=O)c4ccccc4c23)C1)Nc1ccccc1 (stereo not shown) [Compound 371]", "testedTarget": "GST-Aurora A (Homo sapiens, UniProt O14965)", "recordedEndpoint": "pIC50", "val": "< 7.00"}
{"compound": "O=C(Nc1ccccc1)Nc1ccc(Nc2ccnc3[nH]c(=O)c4ccccc4c23)cc1 [Compound 343]", "testedTarget": "GST-Aurora A (Homo sapiens, UniProt O14965)", "recordedEndpoint": "pIC50", "val": "> 7.96"}
{"compound": "O=C(NC1CCC(Nc2ccnc3[nH]c(=O)c4ccccc4c23)CC1)c1ccc(F)c(F)c1 (stereo not shown) [Compound 402]", "testedTarget": "GST-Aurora A (Homo sapiens, UniProt O14965)", "recordedEndpoint": "pIC50", "val": "7.00 to 7.96"}
{"compound": "O=C(Nc1ccccc1Nc1ccnc2[nH]c(=O)c3ccccc3c12)c1ccccc1 [Compound 392]", "testedTarget": "GST-Aurora A (Homo sapiens, UniProt O14965)", "recordedEndpoint": "pIC50", "val": "< 7.00"}

Just so you know, measured pIC50 for Cc1ccccc1CNc1ccc2c(=O)[nH]c3ncccc3c2c1 [Example 46] came out at < 7.00

Just so you know, measured pIC50 for O=C(Nc1ccc(Nc2ccnc3[nH]c(=O)c4ccccc4c23)cc1)c1ccc(F)c(F)c1 [Compound 384] came out at > 7.96

Just so you know, measured pIC50 for COc1cc2c(=O)[nH]c3nccc(Nc4ccc(F)cc4)c3c2cc1OC [Example 215] came out at < 7.00

Just so you know, measured pIC50 for O=C(Nc1ccc(Nc2ccnc3[nH]c(=O)c4ccc(F)cc4c23)cc1)c1cccc(F)c1F [Compound 418] came out at > 7.96

Just so you know, measured pIC50 for O=C(Nc1ccc(Nc2ccnc3[nH]c(=O)c4cc(F)ccc4c23)cc1)c1ccc(F)cc1C(F)(F)F [Compound 414] came out at > 7.96

Just so you know, measured pIC50 for COc1cccc(CNc2ccc3c(=O)[nH]c4ncccc4c3c2)c1 [Example 42] came out at < 7.00

Just so you know, measured pIC50 for O=C(Nc1ccc(Nc2ccnc3[nH]c(=O)c4ccccc4c23)cc1)c1c(Cl)cccc1Cl [Compound 395] came out at > 7.96

Just so you know, measured pIC50 for CN(C)CCNC(=O)c1ccc2c(=O)[nH]c3nccc(Nc4ccc(NC(=O)c5ccc(F)c(F)c5)cc4)c3c2c1 [Compound 298] came out at > 7.96

Just so you know, measured pIC50 for O=C(Nc1ccc(Nc2ccnc3[nH]c(=O)c4ccccc4c23)cc1)c1cccc(F)c1F [Compound 432] came out at > 7.96

Just so you know, measured pIC50 for Clc1nc2ncccc2c2cc(NCc3ccccc3)ccc12 [Example 53] came out at < 7.00

Just so you know, measured pIC50 for O=c1[nH]c2nccc(Nc3ccc(NS(=O)(=O)c4ccccc4)cc3)c2c2ccccc12 [Compound 341] came out at < 7.00

Just so you know, measured pIC50 for O=C(Nc1ccc(Oc2ccnc3[nH]c(=O)c4ccccc4c23)cc1F)c1cccn(-c2ccc(F)cc2)c1=O [Example 187] came out at < 7.00

Just so you know, measured pIC50 for CN1CCN(Cc2ccccc2C(=O)Nc2ccc(Nc3ccnc4[nH]c(=O)c5ccccc5c34)cc2)CC1 [Compound 355] came out at < 7.00

Just so you know, measured pIC50 for CN1CCN(C(=O)c2ccc3c(c2)c(=O)[nH]c2nccc(Nc4ccc(NC(=O)c5ccccc5)cc4)c23)CC1 [Compound 269] came out at 7.00 to 7.96
